- CONDITIONS_USED: in acetonitrile, 333.35 K
ASSAY_ENDPOINT: solubility (mole fraction)

[[record]]
molecule = "O=P1(Oc2ccccc2)OCC2(CO1)COP(=O)(Oc1ccccc1)OC2 (stereo unspecified)"
measured_result = 0.00614


###

- CONDITIONS_USED: in diethyl ether, 295.18 K
ASSAY_ENDPOINT: solubility (mole fraction)

[[record]]
compound = "O=P1(O)OCC2(CO1)COP(=O)(O)OC2 (stereo unspecified)"
measured_result = 0.00073


###

- CONDITIONS_USED: in chloroform, 318.17 K
ASSAY_ENDPOINT: solubility (mole fraction)

[[record]]
compound = "O=C(O)CCP(=O)(O)c1ccccc1"
measured_result = 0.00079


The measurements presented in this section are drawn from BigSolDB 2.1.
